Provide the reported GI50 of each item.
- Tested on: LOX IMVI melanoma
- testProtocol: NCI tumour cell line growth inhibition, 48 h

Ask: Entry under review: OCc1ccc(N2CCOCC2)cc1Cl . Reported GI50?
Result: > 100 µM

Ask: How about this compound: COc1cccc(COc2cc(-n3cnc4ccccc43)sc2C(N)=O)c1
Result: > 25 µM

Ask: How about this compound: N.N.N.N.N.O=S(=O)([O-])S(=O)(=O)[O-].[Co+3]
Result: > 100 µM

Ask: How about this compound: O=C1/C(=C/c2ccc([N+](=O)[O-])cc2)COc2ccc(O)cc21
Result: 1.68 µM

Ask: How about this compound: O=C1c2ccccc2-c2c1c1ccccc1c(=O)n2CCNCCn1c2c(c3ccccc3c1=O)C(=O)c1ccccc1-2
Result: > 25 µM

Ask: How about this compound: Cc1cc2c(cc1Cl)S/C(=C/C(=O)O)C(Nc1cccc3nsnc13)=NS2(=O)=O
Result: 53.4 µM

Ask: How about this compound: COC(=O)c1ccc2c(c1)C(=O)c1c-2n(CCCN=[N+]=[N-])c(=O)c2cc([N+](=O)[O-])ccc12
Result: 61.6 µM

Ask: How about this compound: O=C(c1cccs1)C1NO[N+]([O-])=C1c1cccs1 (stereo not given)
Result: 2.4 µM

Ask: How about this compound: CCn1c(-c2nonc2N)nc2ccncc21
Result: > 25 µM

Ask: How about this compound: [2H]c1nc(=Nc2cc(NC(=O)C=C)c(N(C)CCN(C)C)cc2OC)[nH]c(-c2cn(C([2H])([2H])[2H])c3ccccc23)c1[2H]
Result: 1.65 µM
